Listing: glycan array binding signal (z-score) of selected binders
- ASSAYED_SYSTEM: Fuc(a1-2)Gal(b1-3)GlcNAc(b1-3)[Neu5Ac(a2-6)Gal(b1-4)GlcNAc(b1-6)]Gal(b1-4)Glc
- ASSAY_EXPLANATION: glycan array binding signal (z-score within array); higher = stronger binding
- TEST_SETTINGS: glycan notation: IUPAC condensed, linker removed
The entries come from a sample that favours the strongest signals as a whole.
When you answer, write just the number.

BINDER | glycan array binding signal (z-score)
Arath Fbox (Arabidopsis thaliana), NP_178341.1 (protein) EFTWGRKRRVKSESSPFDSFPEDCISYIISFTNPRDACVAATVSKTFESTVKSDIIWEKFLPADYESLIPPSRVFSSKKELYFSLCNDPVLFDDDKKSVWLEKASGKRCLMLSAMNLSIIWGDNPQYWQWIPIPESRFEKVAKLRDVCWFEIRGRTNTRVLSPRTRYSAYIVFKGVDKCYGFQNVAIEAAVGVVGQEPSRRLICFSEAIRRGRRNVVKPKQREDGWMEIELGEFFNDGGIMDNDEIEMSALETKQLNRKCGLIIQGIEIRPAKILAAAAASFLEQKLISEEDLNSAVDHHHHHH | -0.599

Quick check: glycan array binding signal (z-score) of Intelectin 1 (Homo sapiens), Q8WWA0 (protein) MNQLSFLLFLIATTRGWSTDEANTYFKEWTCSSSPSLPRSCKEIKDECPSAFDGLYFLRTENGVIYQTFCDMTSGGGGWTLVASVHENDMRGKCTVGDRWSSQQGSKAVYPEGDGNWANYNTFGSAEAATSDDYKNPGYYDIQAKDLGIWHVPNKSPMQHWRNSSLLRYRTDTGFLQTLGHNLFGIYQKYPVKYGEGKCWTDNGPVIPVVYDFGDAQKTASYYSPYGQREFTAGFVQFRVFNNERAANALCAGMRVTGCNTEHHCIGGGGYFPEASPQQCGDFSGFDWSGYGTHVGYSSSREITEAAVLLFYR ? 4.21

And then NKR-PIC (Mus musculus) (protein) GTGQKPSREKCCVFIQENLNKTTDCSVNLECPQDWLLHRDKCFHVSQVSNTWEEGQADCGRKGATLLLIQDQEELRFLLDSIKEKYNSFWIGLRFTLPDMNWKWINGTTFNSDVLKITGVTENGSCASILGDKVTPESCASDNRWICQKELNHETPSNDSGT , what is it? -0.362
